# System: L1210 leukemia ip in BDF1 mice, survival T/C
# PROTOCOL_SUMMARY: NCI In Vivo Anticancer Drug Screen. Data for tumor model L1210 Leukemia (intraperitoneal) in B6D2F1 (BDF1) mice
# CONDITIONS: endpoint: mean survival time; dose: 200.0 mg/kg/injection; schedule: Q01DX001 (ip); vehicle: saline; higher = longer survival
Inconclusive results and toxic doses are left out.
The following compounds are listed with their measured T/C values.

The cases that follow already have their T/C on record.
| COMPOUND | EXPERIMENTAL_VALUE |
| --- | --- |
| O=C(CCl)c1ccc(Oc2ccc(C(=O)CCl)cc2)cc1 | 97 % of control |
| COc1cc(-c2ccc(Nc3ccccc3C(=O)O)c(OC)c2)ccc1N | 114 % of control |
| O=C(CC(O)c1ccccc1)Nc1ccccn1 (configuration not stated) | 102 % of control |

Q. Which T/C value is on record for Cc1ccc(N(C=O)N=O)cc1 ?
A. 98 % of control

Q. Which T/C value is on record for CCCCOC(=O)CCCCC(=O)OC(C)C(=O)OCCCC (configuration not stated) ?
A. 102 % of control

Q. Which T/C value is on record for Cc1cc(C)c(S(=O)(=O)O)c(Cc2cccc3ccccc23)c1 ?
A. 88 % of control

----------
# Tested on: L1210 leukemia ip in BDF1 mice, survival T/C
# PROTOCOL_SUMMARY: NCI In Vivo Anticancer Drug Screen. Data for tumor model L1210 Leukemia (intraperitoneal) in B6D2F1 (BDF1) mice
# CONDITIONS: endpoint: mean survival time; dose: 200.0 mg/kg/injection; schedule: Q01DX009 (ip); vehicle: Klucel (hydroxypropylcellulose) (HPC); higher = longer survival
Inconclusive results and toxic doses are left out.
REPORTED_PROPERTY: T/C

The cases that follow already have their T/C on record.
| COMPOUND | T/C |
| --- | --- |
| O=c1ccccn1CC1(c2ccccc2)OCCO1 | 104 % of control |
| S=C(Nc1ccccc1)Nc1cccc2ccccc12 | 105 % of control |
| CSc1ccc(NC(=O)SCc2ccccc2)cc1 | 95 % of control |

Q. Which T/C value is on record for CCCCCCCCCCCCCCCC(=O)O ?
A. 92 % of control

Q. Which T/C value is on record for COC(=O)c1c(Cl)c(Cl)c(Cl)c(Cl)c1C(=O)OC ?
A. 102 % of control

Q. Which T/C value is on record for Cc1nc(C)c(I)s1 ?
A. 97 % of control

Q. Which T/C value is on record for BrC1C(Br)C(Br)C2OC2C1Br (centres undefined) ?
A. 102 % of control

----------
# Test system: L1210 leukemia ip in BDF1 mice, survival T/C
# PROTOCOL_SUMMARY: NCI In Vivo Anticancer Drug Screen. Data for tumor model L1210 Leukemia (intraperitoneal) in B6D2F1 (BDF1) mice
# CONDITIONS: endpoint: mean survival time; dose: 75.0 mg/kg/injection; schedule: Q01DX009 (ip); vehicle: saline; higher = longer survival
Inconclusive results and toxic doses are left out.
REPORTED_PROPERTY: T/C

The cases that follow already have their T/C on record.
| MOLECULE | EXPERIMENTAL_VALUE |
| --- | --- |
| CCC(N)CC | 104 % of control |
| COc1cccc(S(C)(=O)=O)c1 | 105 % of control |
| CCN(CC)P(=O)(N1CC1C)N1CC1C (stereo unspecified) | 90 % of control |
| Oc1ccc(Nc2ccnc3cc(Cl)ccc23)cc1CN1CCCC1 | 95 % of control |
| CCCCNC(C)(C)CS | 105 % of control |

Shift focus to the following entry.
Q. Which T/C value is on record for CCCCCCCCC[n+]1cccc(C#N)c1 ?
A. 90 % of control
